- assay_info: Hemolytic activity in sheep red blood cells incubated for 1 hr
- Assay type: toxicity, cell-based, Ovis aries, Erythrocyte
I'd appreciate it if you could supply HC50 at 1 h values for the items below.

Please give HC50 at 1 h for each item listed below.
1. CCCCCCCCNC(=O)c1cc[n+](CC2=C(C(=O)O)N3C(=O)[C@@H](NC(=O)Cc4ccccc4)[C@H]3SC2)cc1.[I-]
2. CCCCCCCCCC[n+]1ccc(-c2cc[n+](CC3=C(C(=O)[O-])N4C(=O)[C@@H](NC(=O)Cc5ccccc5)[C@H]4SC3)cc2)cc1.O=C([O-])C(F)(F)F
3. CCCCCCCCCCCCCCCC[n+]1ccc(-c2cc[n+](CC3=C(C(=O)[O-])N4C(=O)[C@@H](NC(=O)Cc5ccccc5)[C@H]4SC3)cc2)cc1.O=C([O-])C(F)(F)F
4. CCCCCCNC(=O)c1cc[n+](CC2=C(C(=O)O)N3C(=O)[C@@H](NC(=O)Cc4ccccc4)[C@H]3SC2)cc1.[I-]
5. CCCCNC(=O)c1ccc[n+](CC2=C(C(=O)O)N3C(=O)[C@@H](NC(=O)Cc4ccccc4)[C@H]3SC2)c1.[I-]
6. CCCCCCCC[n+]1ccc(-c2cc[n+](CC3=C(C(=O)[O-])N4C(=O)[C@@H](NC(=O)Cc5ccccc5)[C@H]4SC3)cc2)cc1.O=C([O-])C(F)(F)F
7. CCCCCCCC[n+]1ccc(-c2cc[n+](CC3=C(C(=O)OCc4ccc(OC)cc4)N4C(=O)[C@@H](NC(=O)Cc5ccccc5)[C@H]4SC3)cc2)cc1.[I-].[I-]

> 1280 µg/mL
> 1280 µg/mL
112 µg/mL
> 1280 µg/mL
> 1280 µg/mL
> 1280 µg/mL
> 1280 µg/mL

I have this compound here, `CCCCCCCCCCNC(=O)c1ccc[n+](CC2=C(C(=O)O)N3C(=O)[C@@H](NC(=O)Cc4ccccc4)[C@H]3SC2)c1.[I-]` , and I need its recorded HC50 at 1 h. 318 µg/mL

----------
- assay_info: Hemolytic activity in sheep red blood cells incubated for 1 hr
- Format: toxicity, cell-based, Ovis aries, Erythrocyte
I'd appreciate it if you could supply HC50 at 1 h values for the items below.
Give bare numbers, in µg/mL.

I have this molecule here, `CCCCCCCCCCCC[n+]1ccc(-c2cc[n+](CC3=C(C(=O)OCc4ccc(OC)cc4)N4C(=O)[C@@H](NC(=O)Cc5ccccc5)[C@H]4SC3)cc2)cc1.[I-].[I-]` , and I need its recorded HC50 at 1 h. 273

I have this molecule here, `CCCCCCCCCCCCCCNC(=O)c1ccc[n+](CC2=C(C(=O)O)N3C(=O)[C@@H](NC(=O)Cc4ccccc4)[C@H]3SC2)c1.[I-]` , and I need its recorded HC50 at 1 h. 155

I have this molecule here, `CCCCCCCCCCCCCCNC(=O)c1cc[n+](CC2=C(C(=O)O)N3C(=O)[C@@H](NC(=O)Cc4ccccc4)[C@H]3SC2)cc1.[I-]` , and I need its recorded HC50 at 1 h. 151

# evaluate next
I have this molecule here, `CCCCCCCCCCNC(=O)c1cc[n+](CC2=C(C(=O)O)N3C(=O)[C@@H](NC(=O)Cc4ccccc4)[C@H]3SC2)cc1.[I-]` , and I need its recorded HC50 at 1 h. 321

----------
- Test system: Staphylococcus aureus
- assay_info: Antimicrobial activity against Staphylococcus aureus incubated for 16 to 18 hrs by broth dilution assay
- Type: functional
- condition_parameters: time 16-18 hrs
outcome_measure: MIC (µg/mL)
One number for each entry, in µg/mL.

Solved cases below.
I have this compound here, `CCCC[n+]1ccc(SCC2=C(C(=O)OCc3ccc(OC)cc3)N3C(=O)[C@@H](NC(=O)Cc4ccccc4)[C@H]3SC2)cc1.O=C([O-])C(F)(F)F` , and I need its recorded MIC. 0.125

I have this compound here, `CCCCCCCCCCCCNC(=O)c1cc[n+](CC2=C(C(=O)O)N3C(=O)[C@@H](NC(=O)Cc4ccccc4)[C@H]3SC2)cc1.[I-]` , and I need its recorded MIC. 0.25

I have this compound here, `CCCCCCCCCCNC(=O)c1cc[n+](CC2=C(C(=O)O)N3C(=O)[C@@H](NC(=O)Cc4ccccc4)[C@H]3SC2)cc1.[I-]` , and I need its recorded MIC. 0.063

I have this compound here, `CCCCCCNC(=O)c1ccc[n+](CC2=C(C(=O)OCc3ccc(OC)cc3)N3C(=O)[C@@H](NC(=O)Cc4ccccc4)[C@H]3SC2)c1.[I-]` , and I need its recorded MIC. 0.25

I have this compound here, `CC[n+]1ccc(SCC2=C(C(=O)O)N3C(=O)[C@@H](NC(=O)Cc4ccccc4)[C@H]3SC2)cc1.O=C([O-])C(F)(F)F` , and I need its recorded MIC. 0.063

# evaluate next
I have this compound here, `CCCCCC[n+]1ccc(C(=O)N[C@@H]2C(=O)N3C(C(=O)OC(c4ccccc4)c4ccccc4)=C(COC(C)=O)CS[C@H]23)cc1.[I-]` , and I need its recorded MIC. 64

----------
- Test system: Stenotrophomonas maltophilia
- assay_info: Antimicrobial activity against Stenotrophomonas maltophilia incubated for 16 to 18 hrs by broth dilution assay
- Assay type: functional
- condition_parameters: time 16-18 hrs
I'd appreciate it if you could supply MIC values for the items below.
Give bare numbers, in µg/mL.

Please give MIC for each item listed below.
1. O=C(Cc1ccccc1)N[C@@H]1C(=O)N2C(C(=O)O)=C(CSc3ccncc3)CS[C@H]12
2. CC(=O)OCC1=C(C(=O)O)N2C(=O)[C@@H](NC(=O)Cc3cccs3)[C@H]2SC1 [CEPHALOTHIN]
3. O=C(Cc1ccccc1)N[C@@H]1C(=O)N2C(C(=O)O)=C(C[n+]3ccccc3)CS[C@H]12.[I-]
4. CCCCCCCCCC[n+]1ccc(-c2cc[n+](CC3=C(C(=O)OCc4ccc(OC)cc4)N4C(=O)[C@@H](NC(=O)Cc5ccccc5)[C@H]4SC3)cc2)cc1.[I-].[I-]
5. CCCCCCCCCCCCCCCC[n+]1ccc(-c2cc[n+](CC3=C(C(=O)[O-])N4C(=O)[C@@H](NC(=O)Cc5ccccc5)[C@H]4SC3)cc2)cc1.O=C([O-])C(F)(F)F

1. 64
2. 16
3. 64
4. 128
5. 128

----------
- Tested on: Staphylococcus aureus
- assay_info: Antimicrobial activity against Staphylococcus aureus incubated for 16 to 18 hrs by broth dilution assay
- Format: functional
- condition_parameters: time 16-18 hrs
outcome_measure: MIC
Give the number first and the unit second.

Solved cases below.
Recall the recorded MIC for `CCCCCCCCCC[n+]1ccc(-c2cc[n+](CC3=C(C(=O)[O-])N4C(=O)[C@@H](NC(=O)Cc5ccccc5)[C@H]4SC3)cc2)cc1.O=C([O-])C(F)(F)F` with Staphylococcus aureus and state it. 0.063 µg/mL

Recall the recorded MIC for `CCCCCC[n+]1ccc(-c2cc[n+](CC3=C(C(=O)[O-])N4C(=O)[C@@H](NC(=O)Cc5ccccc5)[C@H]4SC3)cc2)cc1.O=C([O-])C(F)(F)F` with Staphylococcus aureus and state it. 0.125 µg/mL

Recall the recorded MIC for `CCCCCCCCCC[n+]1ccc(C(=O)N[C@@H]2C(=O)N3C(C(=O)O)=C(COC(C)=O)CS[C@H]23)cc1.[I-]` with Staphylococcus aureus and state it. 128 µg/mL

Recall the recorded MIC for `O=C(Cc1ccccc1)N[C@@H]1C(=O)N2C(C(=O)O)=C(C[n+]3ccccc3)CS[C@H]12.[I-]` with Staphylococcus aureus and state it. 0.063 µg/mL

Recall the recorded MIC for `CCCCCCCCNC(=O)c1ccc[n+](CC2=C(C(=O)OCc3ccc(OC)cc3)N3C(=O)[C@@H](NC(=O)Cc4ccccc4)[C@H]3SC2)c1.[I-]` with Staphylococcus aureus and state it. 0.25 µg/mL

Please give MIC for each item listed below.
1. CCCC[n+]1ccc(C(=O)N[C@@H]2C(=O)N3C(C(=O)OC(c4ccccc4)c4ccccc4)=C(COC(C)=O)CS[C@H]23)cc1.[I-]
2. CC(=O)OCC1=C(C(=O)O)N2C(=O)[C@@H](NC(=O)c3ccncc3)[C@H]2SC1

["128 µg/mL", "16 µg/mL"]

----------
- Tested on: Staphylococcus aureus
- assay_info: Antimicrobial activity against Staphylococcus aureus incubated for 16 to 18 hrs by broth dilution assay
- Type: functional
- condition_parameters: time 16-18 hrs
outcome_measure: MIC
Give the number first and the unit second.

Solved cases below.
Recall the recorded MIC for `CCCCCC[n+]1ccc(SCC2=C(C(=O)OCc3ccc(OC)cc3)N3C(=O)[C@@H](NC(=O)Cc4ccccc4)[C@H]3SC2)cc1.O=C([O-])C(F)(F)F` with Staphylococcus aureus and state it. 0.063 µg/mL

Recall the recorded MIC for `CCCCCCCC[n+]1ccc(SCC2=C(C(=O)OCc3ccc(OC)cc3)N3C(=O)[C@@H](NC(=O)Cc4ccccc4)[C@H]3SC2)cc1.O=C([O-])C(F)(F)F` with Staphylococcus aureus and state it. 0.063 µg/mL

Recall the recorded MIC for `CCCCCCCCCCCCCCNC(=O)c1ccc[n+](CC2=C(C(=O)O)N3C(=O)[C@@H](NC(=O)Cc4ccccc4)[C@H]3SC2)c1.[I-]` with Staphylococcus aureus and state it. 2 µg/mL

Recall the recorded MIC for `CCCCCCCCCCCC[n+]1ccc(-c2cc[n+](CC3=C(C(=O)OCc4ccc(OC)cc4)N4C(=O)[C@@H](NC(=O)Cc5ccccc5)[C@H]4SC3)cc2)cc1.[I-].[I-]` with Staphylococcus aureus and state it. 1 µg/mL

Recall the recorded MIC for `CCCCCCCCCCCCCCCC[n+]1ccc(-c2cc[n+](CC3=C(C(=O)OCc4ccc(OC)cc4)N4C(=O)[C@@H](NC(=O)Cc5ccccc5)[C@H]4SC3)cc2)cc1.[I-].[I-]` with Staphylococcus aureus and state it. 4 µg/mL

# evaluate next
Recall the recorded MIC for `CCCCCCCCCCCCCCCC[n+]1ccc(-c2cc[n+](CC3=C(C(=O)[O-])N4C(=O)[C@@H](NC(=O)Cc5ccccc5)[C@H]4SC3)cc2)cc1.O=C([O-])C(F)(F)F` with Staphylococcus aureus and state it. 4 µg/mL
